# Experiment notes: Hemolytic activity in rabbit RBC at 200 ug/ml incubated for 5 mins by absorbance based analysis
# Format: toxicity, cell-based, Oryctolagus cuniculus, Erythrocyte
# Condition: rabbit red blood cells (erythrocytes), at 200 µg/mL, read-out: Activity
Endpoint: hemolysis at 5 min, 200 ug/ml

hemolysis at 5 min, 200 ug/ml reported for this molecule C=C[C@]1(C)C[C@@H](OC(=O)CSc2cc[n+](CCCCCCC)cc2)[C@]2(C)[C@H](C)CC[C@]3(CCC(=O)[C@H]32)[C@@H](C)[C@@H]1O.[I-] : < 14%

* * *

# Test system: Staphylococcus aureus
# Experiment notes: Antibacterial activity against methicillin-resistant Staphylococcus aureus ATCC 43300 assessed as inhibition of bacterial growth measured after 24 hrs by MH broth based assay
# Format: functional
Collected MIC values appear next to each entry.
Give just the number in µg/mL; leave the unit off.

Some solved cases for reference:
C=C[C@]1(C)C[C@@H](OC(=O)CSc2cc[n+](CCC)cc2)[C@]2(C)[C@H](C)CC[C@]3(CCC(=O)[C@H]32)[C@@H](C)[C@@H]1O.[I-]: 0.25
C=C[C@]1(C)C[C@@H](OC(=O)CSc2cc[n+](CCCCCCCCCCC(=O)O)cc2)[C@]2(C)[C@H](C)CC[C@]3(CCC(=O)[C@H]32)[C@@H](C)[C@@H]1O.[I-]: 0.5
C=C[C@]1(C)C[C@@H](OC(=O)CSc2cc[n+](CCCO)cc2)[C@]2(C)[C@H](C)CC[C@]3(CCC(=O)[C@H]32)[C@@H](C)[C@@H]1O.[I-]: 1
C=C[C@]1(C)C[C@@H](OC(=O)CSc2cc[n+](C(C)C)cc2)[C@]2(C)[C@H](C)CC[C@]3(CCC(=O)[C@H]32)[C@@H](C)[C@@H]1O.[I-]: 1

MIC reported for this compound C=C[C@]1(C)C[C@@H](OC(=O)CSc2cc[n+](CCCCCCCC(=O)O)cc2)[C@]2(C)[C@H](C)CC[C@]3(CCC(=O)[C@H]32)[C@@H](C)[C@@H]1O.[I-] : 8

* * *

Collected MIC values appear next to each entry.
# System: Bacillus subtilis
# Experiment notes: Antibacterial activity against Bacillus subtilis ATCC 6633 assessed as inhibition of bacterial growth measured after 24 hrs by MH broth based assay
# Type: functional
Give just the number in µg/mL; leave the unit off.

Some solved cases for reference:
C=C[C@]1(C)C[C@@H](OC(=O)CSc2cc[n+](CC(C)C)cc2)[C@]2(C)[C@H](C)CC[C@]3(CCC(=O)[C@H]32)[C@@H](C)[C@@H]1O.[I-]: 64
C=C[C@]1(C)C[C@@H](OC(=O)CSc2cc[n+](CCCC)cc2)[C@]2(C)[C@H](C)CC[C@]3(CCC(=O)[C@H]32)[C@@H](C)[C@@H]1O.[Br-]: 64
C=C[C@]1(C)C[C@@H](OC(=O)CSc2cc[n+](CCO)cc2)[C@]2(C)[C@H](C)CC[C@]3(CCC(=O)[C@H]32)[C@@H](C)[C@@H]1O.[I-]: 64

MIC reported for this compound C=C[C@]1(C)C[C@@H](OC(=O)CSc2cc[n+](Cc3ccc(OC)cc3)cc2)[C@]2(C)[C@H](C)CC[C@]3(CCC(=O)[C@H]32)[C@@H](C)[C@@H]1O.[I-] : 16

MIC reported for this compound CN[C@H](CC(C)C)C(=O)N[C@H]1C(=O)N[C@@H](CC(N)=O)C(=O)N[C@H]2C(=O)N[C@H]3C(=O)N[C@H](C(=O)N[C@H](C(=O)O)c4cc(O)cc(O)c4-c4cc3ccc4O)[C@H](O)c3ccc(c(Cl)c3)Oc3cc2cc(c3O[C@@H]2O[C@H](CO)[C@@H](O)[C@H](O)[C@H]2O[C@H]2C[C@](C)(N)[C@H](O)[C@H](C)O2)Oc2ccc(cc2Cl)[C@H]1O : 0.125

MIC reported for this compound C=C[C@]1(C)C[C@@H](OC(=O)CSc2cc[n+](CCCCCCCCCC)cc2)[C@]2(C)[C@H](C)CC[C@]3(CCC(=O)[C@H]32)[C@@H](C)[C@@H]1O.[I-] : 2

MIC reported for this compound C=C[C@]1(C)C[C@@H](OC(=O)CSc2cc[n+](C(C)C)cc2)[C@]2(C)[C@H](C)CC[C@]3(CCC(=O)[C@H]32)[C@@H](C)[C@@H]1O.[I-] : 64

MIC reported for this compound C=C[C@]1(C)C[C@@H](OC(=O)CSc2cc[n+](CC3CCCO3)cc2)[C@]2(C)[C@H](C)CC[C@]3(CCC(=O)[C@H]32)[C@@H](C)[C@@H]1O.[I-] (stereo not given in full) : 64

* * *

# System: Staphylococcus aureus
# Experiment notes: Antibacterial activity against methicillin-resistant Staphylococcus aureus ATCC 43300 assessed as inhibition of bacterial growth measured after 24 hrs by MH broth based assay
# Assay type: functional
# strict inequality: MIC < 0.5 µg/mL yields Criterion met, everything else yields Criterion not met

Reference set, count: 3
C=C[C@]1(C)C[C@@H](OC(=O)CSc2cc[n+](CC(=O)N3CCS(=O)(=O)CC3)cc2)[C@]2(C)[C@H](C)CC[C@]3(CCC(=O)[C@H]32)[C@@H](C)[C@@H]1O.[I-]: Criterion not met
C=C[C@]1(C)C[C@@H](OC(=O)CSc2cc[n+](Cc3ccc(C(=O)OC(C)(C)C)cc3)cc2)[C@]2(C)[C@H](C)CC[C@]3(CCC(=O)[C@H]32)[C@@H](C)[C@@H]1O.[I-]: Criterion not met
C=C[C@]1(C)C[C@@H](OC(=O)CSc2cc[n+](CC(=O)NC3CCCC3)cc2)[C@]2(C)[C@H](C)CC[C@]3(CCC(=O)[C@H]32)[C@@H](C)[C@@H]1O.[I-]: Criterion not met

Does C=CCC[n+]1ccc(SCC(=O)O[C@@H]2C[C@@](C)(C=C)[C@@H](O)[C@H](C)[C@]34CCC(=O)[C@H]3[C@@]2(C)[C@H](C)CC4)cc1.[I-] have MIC strictly under 0.5 µg/mL? Criterion met

Does C=C[C@]1(C)C[C@@H](OC(=O)CSc2cc[n+](CCCCC(=O)O)cc2)[C@]2(C)[C@H](C)CC[C@]3(CCC(=O)[C@H]32)[C@@H](C)[C@@H]1O.[I-] have MIC strictly under 0.5 µg/mL? Criterion not met

* * *

# Tested on: Enterococcus
# Experiment notes: Antibacterial activity against vancomycin-resistant Enterococcus ATCC 700221 assessed as inhibition of bacterial growth measured after 24 hrs by MH broth based assay
# Format: functional
Collected MIC values appear next to each entry.
Give just the number in µg/mL; leave the unit off.

Some solved cases for reference:
C=C[C@]1(C)C[C@@H](OC(=O)CSc2cc[n+](CCCCCC(=O)O)cc2)[C@]2(C)[C@H](C)CC[C@]3(CCC(=O)[C@H]32)[C@@H](C)[C@@H]1O.[I-]: 64
C=C[C@]1(C)C[C@@H](OC(=O)CSc2cc[n+](CCCCC(=O)O)cc2)[C@]2(C)[C@H](C)CC[C@]3(CCC(=O)[C@H]32)[C@@H](C)[C@@H]1O.[I-]: 64

The record that follows has no MIC shown yet.
MIC reported for this molecule C=C[C@]1(C)C[C@@H](OC(=O)CSc2cc[n+](CC3CCCO3)cc2)[C@]2(C)[C@H](C)CC[C@]3(CCC(=O)[C@H]32)[C@@H](C)[C@@H]1O.[I-] (stereo partly drawn) : 64

* * *

Collected MIC values appear next to each entry.
# Test system: Enterococcus
# Experiment notes: Antibacterial activity against vancomycin-resistant Enterococcus ATCC 700221 assessed as inhibition of bacterial growth measured after 24 hrs by MH broth based assay
# Format: functional

Some solved cases for reference:
C=CCC[n+]1ccc(SCC(=O)O[C@@H]2C[C@@](C)(C=C)[C@@H](O)[C@H](C)[C@]34CCC(=O)[C@H]3[C@@]2(C)[C@H](C)CC4)cc1.[I-]: 16 µg/mL
C=C[C@]1(C)C[C@@H](OC(=O)CSc2cc[n+](CC(=O)N3CCOCC3)cc2)[C@]2(C)[C@H](C)CC[C@]3(CCC(=O)[C@H]32)[C@@H](C)[C@@H]1O.[I-]: 64 µg/mL
C=C[C@]1(C)C[C@@H](OC(=O)CSc2cc[n+](CC(=O)N3CCC(CO)CC3)cc2)[C@]2(C)[C@H](C)CC[C@]3(CCC(=O)[C@H]32)[C@@H](C)[C@@H]1O.[I-]: 64 µg/mL

MIC reported for this compound C=C[C@]1(C)C[C@@H](OC(=O)CSc2cc[n+](CCCCCCCCCCC(=O)O)cc2)[C@]2(C)[C@H](C)CC[C@]3(CCC(=O)[C@H]32)[C@@H](C)[C@@H]1O.[I-] : 64 µg/mL

MIC reported for this compound C=C[C@]1(C)C[C@@H](OC(=O)CSc2cc[n+](CCO)cc2)[C@]2(C)[C@H](C)CC[C@]3(CCC(=O)[C@H]32)[C@@H](C)[C@@H]1O.[I-] : 32 µg/mL

MIC reported for this compound C=C[C@]1(C)C[C@@H](OC(=O)CSc2cc[n+](CC(C)C)cc2)[C@]2(C)[C@H](C)CC[C@]3(CCC(=O)[C@H]32)[C@@H](C)[C@@H]1O.[I-] : 64 µg/mL

MIC reported for this compound C=C[C@]1(C)C[C@@H](OC(=O)CSc2cc[n+](CCC)cc2)[C@]2(C)[C@H](C)CC[C@]3(CCC(=O)[C@H]32)[C@@H](C)[C@@H]1O.[I-] : 16 µg/mL

MIC reported for this compound C=C[C@]1(C)C[C@@H](OC(=O)CSc2cc[n+](Cc3ccc(OC)cc3)cc2)[C@]2(C)[C@H](C)CC[C@]3(CCC(=O)[C@H]32)[C@@H](C)[C@@H]1O.[I-] : 4 µg/mL

MIC reported for this compound C=C[C@]1(C)C[C@@H](OC(=O)CSc2cc[n+](CC#CC)cc2)[C@]2(C)[C@H](C)CC[C@]3(CCC(=O)[C@H]32)[C@@H](C)[C@@H]1O.[I-] : 32 µg/mL

MIC reported for this compound C=CC[n+]1ccc(SCC(=O)O[C@@H]2C[C@@](C)(C=C)[C@@H](O)[C@H](C)[C@]34CCC(=O)[C@H]3[C@@]2(C)[C@H](C)CC4)cc1.[I-] : 32 µg/mL

MIC reported for this compound C=C[C@]1(C)C[C@@H](OC(=O)CSc2cc[n+](CC(=O)NCc3ccccc3C)cc2)[C@]2(C)[C@H](C)CC[C@]3(CCC(=O)[C@H]32)[C@@H](C)[C@@H]1O.[I-] : 64 µg/mL

MIC reported for this compound C=C[C@]1(C)C[C@@H](OC(=O)CSc2cc[n+](CC(=O)O)cc2)[C@]2(C)[C@H](C)CC[C@]3(CCC(=O)[C@H]32)[C@@H](C)[C@@H]1O.[I-] : 64 µg/mL

MIC reported for this compound C=C[C@]1(C)C[C@@H](OC(=O)CSc2cc[n+](CCCCCCC)cc2)[C@]2(C)[C@H](C)CC[C@]3(CCC(=O)[C@H]32)[C@@H](C)[C@@H]1O.[I-] : 4 µg/mL

MIC reported for this compound C=C[C@]1(C)C[C@@H](OC(=O)CSc2cc[n+](Cc3ccc(C(=O)OC(C)(C)C)cc3)cc2)[C@]2(C)[C@H](C)CC[C@]3(CCC(=O)[C@H]32)[C@@H](C)[C@@H]1O.[I-] : 64 µg/mL

MIC reported for this compound C=C[C@]1(C)C[C@@H](OC(=O)CSc2cc[n+](CCCCCCCCCC(=O)O)cc2)[C@]2(C)[C@H](C)CC[C@]3(CCC(=O)[C@H]32)[C@@H](C)[C@@H]1O.[I-] : 64 µg/mL

MIC reported for this compound C=C[C@]1(C)C[C@@H](OC(=O)CSc2cc[n+](Cc3cccc(NC(=O)OC(C)(C)C)c3)cc2)[C@]2(C)[C@H](C)CC[C@]3(CCC(=O)[C@H]32)[C@@H](C)[C@@H]1O.[I-] : 16 µg/mL

MIC reported for this compound C=C[C@]1(C)C[C@@H](OC(=O)CSc2cc[n+](CC(=O)NC3CCCC3)cc2)[C@]2(C)[C@H](C)CC[C@]3(CCC(=O)[C@H]32)[C@@H](C)[C@@H]1O.[I-] : 64 µg/mL

Hello, the source for this data is ChEMBL document CHEMBL5346923, in case you need it.
